tgt: Human recombinant MMP-13 (Homo sapiens, UniProt P45452)
Construct: made in house; host or cells: baculovirus / insect cells
test: In vitro MMP inhibition, IC50 determination (fluorogenic substrate I)
Assay type: biochemical
test.parameters: value outside parenthesis
Method: Several hydroxamates and salts thereof were analyzed in in vitro assays to determine their ability to inhibit the MMP cleavage of peptide substrates. Inhibition (Ki) and IC50 constants were calculated from the assayed hydroxamate-MMP interactions. […] The assays from which the IC50 determinations were made were performed as follows. […] The assayed hydroxamate samples were, incubated in Microfluorrm White Plates (Dynatech, Chantilly, VA) and analyzed on a Perkin Elmer L550 plate reader (Norwalk, Conn.). […]
Consider the following compounds; for each one, report its pIC50.
One number for each entry, as −log10 of the molar value.

// query Query (compound): COc1cc(OC)cc(-c2noc(CCCOc3ccc(S(=O)(=O)C4(C(=O)NO)CCOCC4)cc3)n2)c1 ; field requested: pIC50
// result 8.34

As a next step, examine the compound that follows.
// query Query (compound): O=C1CN(c2ccc(OC(F)(F)F)cc2)C(=O)N1CCCOc1ccc(S(=O)(=O)C2(C(=O)NO)CCN(C3CC3)CC2)cc1 ; field requested: pIC50
// result 8.37

====

tgt: Human recombinant MMP-2 (Homo sapiens, UniProt P08253)
Construct: made in house; host or cells: MMP-2-transfected p2AHT2 cells
Sequence (P08253 110-660): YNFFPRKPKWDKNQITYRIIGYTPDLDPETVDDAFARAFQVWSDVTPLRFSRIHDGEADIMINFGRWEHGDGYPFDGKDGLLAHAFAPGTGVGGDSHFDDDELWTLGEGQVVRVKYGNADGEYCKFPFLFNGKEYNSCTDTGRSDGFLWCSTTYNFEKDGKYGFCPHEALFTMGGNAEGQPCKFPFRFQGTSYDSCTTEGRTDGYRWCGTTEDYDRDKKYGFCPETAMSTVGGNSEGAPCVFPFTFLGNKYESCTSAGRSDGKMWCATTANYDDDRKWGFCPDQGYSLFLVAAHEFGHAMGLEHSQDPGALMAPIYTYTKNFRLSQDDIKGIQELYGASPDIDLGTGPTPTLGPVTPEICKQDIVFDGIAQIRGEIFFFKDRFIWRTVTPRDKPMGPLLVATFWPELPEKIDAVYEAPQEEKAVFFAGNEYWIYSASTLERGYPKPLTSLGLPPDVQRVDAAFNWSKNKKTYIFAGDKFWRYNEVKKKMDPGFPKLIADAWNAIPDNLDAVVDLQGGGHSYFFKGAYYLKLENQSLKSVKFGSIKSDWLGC
test: In vitro MMP inhibition, IC50 determination (fluorogenic substrate I)
Format: biochemical
test.parameters: value outside parentheses (Ki in parenthesis)
property.label: IC50 (µM)
Numbers only, in µM.

// query Query (molecule): O=C(NCCCOc1ccc(S(=O)(=O)C2(C(=O)NO)CCOCC2)cc1)c1cnc2ccccc2c1 [Example 390] ; field requested: IC50
// result 0.907

Please give IC50 for each item listed below.
1. COc1ccc(SC[C@H](C)COc2ccc(S(=O)(=O)C3(C(=O)NO)CCOCC3)cc2)cc1 [Example 434]
2. O=C(NCCCOc1ccc(S(=O)(=O)C2(C(=O)NO)CCOCC2)cc1)c1ccc(Cl)nc1 [Example 381]
3. O=C(NO)C1(S(=O)(=O)c2ccc(OCCCCN3CCCc4ccccc43)cc2)CCOCC1 [Example 413]
4. COc1ccc(C(=O)NCCOc2ccc(S(=O)(=O)C3(C(=O)NO)CCOCC3)cc2)cc1 [Example 393]
5. O=C1c2cc(Cl)c(Cl)cc2C(=O)N1CCCOc1ccc(S(=O)(=O)C2(C(=O)NO)CCOCC2)cc1 [Example 333]
6. NS(=O)(=O)CCCOc1ccc(S(=O)(=O)C2(C(=O)NO)CCOCC2)cc1 [Example 296]
7. O=C(CCCOc1ccc(S(=O)(=O)C2(C(=O)NO)CCOCC2)cc1)c1ccc2ccccc2c1 [Example 299]
8. O=C(NCCCOc1ccc(S(=O)(=O)C2(C(=O)NO)CCOCC2)cc1)c1ccccc1 [Example 417]

// result
[0.0011, 0.193, 0.061, 0.05, 0.656, 1.34, 0.0032, 0.315]

====

tgt: Human recombinant MMP-13 (Homo sapiens, UniProt P45452)
Construct: made in house; host or cells: baculovirus / insect cells
test: In vitro MMP inhibition, IC50 determination (fluorogenic substrate I)
Format: biochemical
test.parameters: value outside parenthesis
Consider the following compounds; for each one, report its IC50.
Answers are plain numbers, in nM.

// query I'm curious: which IC50 was measured for O=C(NO)C1(S(=O)(=O)c2ccc(OCCc3cccc(-c4cc(F)cc(F)c4)c3)cc2)CCOCC1 tested on Human recombinant MMP-13 (Homo sapiens, UniProt P45452)?
// result 7.6

// query Same for O=C(NO)C1(S(=O)(=O)c2ccc(OCCCc3nc(-c4c(Cl)cccc4Cl)no3)cc2)CCOCC1
// result 3.3

// query Same for CC(C)[C@H]1C(=O)N(CCCOc2ccc(S(=O)(=O)C3(C(=O)NO)CCOCC3)cc2)C(=O)N1c1ccccc1
// result 7.7

// query Same for COCCN1CCC(C(=O)NO)(S(=O)(=O)c2ccc(OCCCn3nnc(-c4ccccc4C)n3)cc2)CC1
// result 2.6

// query Same for O=C(NO)C1(S(=O)(=O)c2ccc(OCCCc3cccc(-c4cc(F)cc(F)c4)c3)cc2)CCOCC1
// result 24.4

As a next step, examine the compound that follows.
// query I'm curious: which IC50 was measured for O=C(NO)C1(S(=O)(=O)c2ccc(OCCCc3ccnc(-c4ccccc4)c3)cc2)CCOCC1 tested on Human recombinant MMP-13 (Homo sapiens, UniProt P45452)?
// result 0.5
